Data credit: paper PMC7643060

Catalogue of Wells with arrhythmias values
Tested on: hiPSC-CM syncytia
Assay: Proarrhythmia screen in 96 well plates using CiPA compounds (voltage sensitive dye, optical mapping)
Assay type: cell-based, human
Conditions: hiPSC-CM syncytia on Matrix Plus, 10 × ETPC, 30 min exposure
Write the answer as a number in %, unit excluded.

compound	reported.result
CC(C)N(CCC(C(N)=O)(c1ccccc1)c1ccccn1)C(C)C (stereo not shown) [disopyramide]	66

Would you kindly look at the next entry?
stdin: What measured Wells with arrhythmias goes with CN(CCOc1ccc(NS(C)(=O)=O)cc1)CCc1ccc(NS(C)(=O)=O)cc1 [dofetilide] ?
stdout: 83
